molecular target: AgSla1-D3; assay: SPOT peptide array binding signal intensity (averaged, normalized) (arbitrary units (background-subtracted, floor 0; scale differs between SH3 domains)); higher = stronger binding of the SH3 domain to the peptide
Please provide measured SPOT peptide array binding signal intensity for the entries that follow.
API note: the answer field is a bare number with no unit suffix.

Please supply the value of reported SPOT peptide array binding signal intensity for the item "GKKVRPLLVLLLSRA"
1

Please supply the value of reported SPOT peptide array binding signal intensity for the item "RKNRAPPQRPRFNRD"
52

Please supply the value of reported SPOT peptide array binding signal intensity for the item "LLGRKRPVMERVVDI"
0.5
